assay_procedure: Liver microsomal metabolism assay, rat
Assay type: in vitro ADME
conditions: SD, pH 7.4; rat liver microsomes 0.5 mg/mL, compound 1 μM, 37° C.; read-out: Rat liver microsome assay t1/2
metric: half-life at 1 μM (min)
Numeric only. Scale: min

The reported half-life at 1 μM of the compound CN1CCN(c2ccc(C(=O)Nc3n[nH]c4ccc(Cc5cc(F)cc(F)c5)cc34)c(NC3CCOCC3)c2)CC1 [Entrectinib, reference compound] was 42.2

The reported half-life at 1 μM of the compound [2H]c1cc(C(=O)Nc2n[nH]c3ccc(Cc4cc(F)cc(F)c4)cc23)c(NC2CCOCC2)c([2H])c1N1CCN(C([2H])([2H])[2H])CC1 was 44.7

The reported half-life at 1 μM of the compound [2H]c1cc(C(=O)Nc2n[nH]c3ccc(Cc4cc(F)cc(F)c4)cc23)c(NC2CCOCC2)c([2H])c1N1C([2H])([2H])C([2H])([2H])N(C([2H])([2H])[2H])C([2H])([2H])C1([2H])[2H] was 46.7

The reported half-life at 1 μM of the compound [2H]C([2H])([2H])N1C([2H])([2H])C([2H])([2H])N(c2ccc(C(=O)Nc3n[nH]c4ccc(Cc5cc(F)cc(F)c5)cc34)c(NC3CCOCC3)c2)C([2H])([2H])C1([2H])[2H] was 50.7

The reported half-life at 1 μM of the compound [2H]C([2H])(c1cc(F)cc(F)c1)c1ccc2[nH]nc(NC(=O)c3ccc(N4CCN(C([2H])([2H])[2H])CC4)cc3NC3CCOCC3)c2c1 was 44.6
